This listing pairs compounds with measured growth.
test system: RXF 393 renal; assay: NCI-60 one-dose screen, 48 h (100 = growth as untreated, 0 = no growth, -100 = all killed); details: 10 µM unless noted
Compounds without any hit were thinned out: in the full panel of roughly 83,000, 20% have a hit.
RECORDED_METRIC: growth (%)

>>> numeric_readout("Nc1nc(-c2ccc(F)cc2)cc(-c2cnn(-c3ccccc3)n2)n1")
97.4
>>> numeric_readout("COc1cccc(-c2nc3sccn3c2-c2ccnc(NCCCNS(=O)(=O)c3ccccc3)c2)c1")
63.7
>>> numeric_readout("CCc1ccc(C(c2ccc(CC)cc2)C(Cl)(Cl)CCl)cc1")
131
>>> numeric_readout("CCCCCCNC(=O)Oc1ccc(/C(=C(\\C)c2ccccc2)c2ccc(OCCN(CC)CC)cc2)cc1")
32.7
>>> numeric_readout("Nc1cc(O)cc2cccnc12")
135

====

test system: UACC-62 melanoma; test: NCI-60 one-dose screen, 48 h; conditions: 10 µM unless noted
Compounds without any hit were thinned out: in the full panel of roughly 83,000, 20% have a hit. The source made the active and inactive calls. Rule for the calls: active = growth percent below 10; inactive = the rest.
Possible outcomes: 1 = active, 0 = inactive

>>> label_value("CN1CCCCC1CCN1c2ccccc2Sc2ccc(Br)cc21 (configuration not stated)")
0
>>> label_value("CCCCCCNC(=O)Oc1ccc(/C(=C(\\C)c2ccccc2)c2ccc(OCCN(CC)CC)cc2)cc1")
0
>>> label_value("CCCCNC(=O)NS(=O)(=O)c1ccc(N2N=C(c3cc(C)ccc3C)CC2c2cc(OC)c(OC)c(OC)c2)cc1 (configuration not stated)")
0
>>> label_value("O=C(O)c1cccnc1Br")
0
>>> label_value("CC(=O)/C(=C/c1cccc(Cl)c1)C(=O)c1ccccc1")
0
>>> label_value("C=C1CC[C@@H]2[C@](C)(COC(C)=O)[C@H](OC(C)=O)CC[C@@]2(C)[C@@H]1CC(NCc1ccc(F)cc1)C1=CCOC1=O (some centres not stated)")
0
>>> label_value("Cn1c2c(Cl)c(Cl)ccc2c2ccn3c(=O)c4ccccc4nc3c21")
0
>>> label_value("CC/C(Cc1ccccc1)=C(/c1ccc(O)cc1)c1ccc(OCCN2CCCC2)cc1")
1
>>> label_value("COc1ccc(C2c3ccc4ccccc4c3Oc3ncnc(N)c32)cc1 (configuration not stated)")
0
>>> label_value("COc1ncc(-c2ccc3ncnc(Nc4cccc(Cl)c4)c3c2)cc1NS(C)(=O)=O")
0
>>> label_value("COc1cccc(/C=C2/C(=O)N(Cc3ccco3)SC2=S)c1OC")
0
>>> label_value("COc1ccc(C(=O)c2sc3nc4c(c(C(F)(F)F)c3c2N)CN(C(C)=O)CC4)cc1OC")
0
>>> label_value("O=C(COc1cccc(/C=C2/Oc3ccccc3C2=O)c1)Nc1nccs1")
0
>>> label_value("CCN(CC)C12CCCCC1(C)C(C#N)(C#N)C(C#N)=C(N)O2 (configuration not stated)")
0
>>> label_value("CC[n+]1ccc2c(c1)C(=O)c1nccc3c1c-2nc1ccccc13")
1
>>> label_value("Cc1[nH]n(-c2ccccc2)c2nc3nncc3c(-c3ccc(Cl)cc3)c12")
0
>>> label_value("CC(C)CC(CC1=CCC2CC1C2(C)C)C1=C(O)C(C)(C)C(=O)C(C)(C)C1=O (configuration not stated)")
1

====

tested on: HOP-62 NSCLC; experiment: NCI-60 one-dose screen, 48 h (100 = growth as untreated, 0 = no growth, -100 = all killed); conditions: 10 µM unless noted
About 83,000 compounds went through this panel and 20% of them were active in at least one assay; those are over-represented in the sample as a whole.
Below: a set of entries, each annotated with reported growth.
RECORDED_METRIC: growth (%)

>>> numeric_readout("COc1ccc(C(=O)/C=C/c2c(Cl)c3c(c(OC)c2Cl)OCC(=O)N3)cc1")
21
>>> numeric_readout("CCN(CC)CC(O)CNc1c2ccc([N+](=O)[O-])cc2nc2cc(OC)c(OC)cc12 (stereo not drawn)")
-51
>>> numeric_readout("CCOc1ccc(Nc2nc(-c3c(C)nc4ncccn34)cs2)cc1")
17.9
>>> numeric_readout("COc1ccc(C2c3ccc4ccccc4c3Oc3ncnc(N)c32)cc1 (stereo not drawn)")
45.1
>>> numeric_readout("COc1cc(-c2c3c(nc4c2c(C)nn4-c2ccccc2)-c2ccccc2C(=O)C3=O)cc(OC)c1OC")
107
>>> numeric_readout("COc1cc2nc3cc([N+](=O)[O-])ccc3c(NCCCNCC(C)(C)O)c2cc1OC")
-53.3
>>> numeric_readout("COc1ccc(/C=N\\NC(=O)CN2CCN(c3cc4c(cc3F)c(=O)c(C(=O)N/N=C/c3ccc(OC)cc3)cn4C3CC3)CC2)cc1")
97.4
>>> numeric_readout("CCN(CC)c1ccc(/C=C/C2=[N+](C)c3ccccc3C2(C)C)cc1")
13.8
>>> numeric_readout("Cc1cc2cc3cc(C)c(N(C)C)cc3[n+](C)c2cc1N(C)C")
30
>>> numeric_readout("N#Cc1ccc(NC(=O)Nc2ccc(Cc3ccc(NC(=O)Nc4ccc(C#N)cc4)cc3)cc2)cc1")
50.2
>>> numeric_readout("CC/C=C\\C[C@H](F)C/C=C1/C(=O)C=C[C@@H]1C/C=C\\CCCC(=O)OC")
-25.8
>>> numeric_readout("Cc1ccc(NC(=O)c2sc3nc4c(cc3c2N)C(=O)CCC4)cc1C")
23.5
>>> numeric_readout("COC(=S)SCN(CSC(=S)OC)c1ccc(Cl)cc1")
76.9
>>> numeric_readout("O=C1c2cc3c(cc2-c2c1c1cc(Cl)c(Cl)cc1c(=O)n2CCCn1ccnc1)OCO3")
-19.5
>>> numeric_readout("C(=N\\Nc1nnn(Cc2ccccc2)n1)/c1ccccc1")
67.3
>>> numeric_readout("COc1cc(C#N)cc(OC)c1OCCN(CCOc1c(OC)cc(C#N)cc1OC)S(=O)(=O)c1ccc(C)cc1")
100
>>> numeric_readout("NC(=S)N/N=C/c1ccc(OCc2ccccc2)cc1")
93.8
>>> numeric_readout("CSc1nc(NCCO)c(C#N)c(-c2cccc(N)c2)n1")
83.7
>>> numeric_readout("O=C(N/N=C/c1ccc(O)cc1O)c1cccnc1")
43.2
>>> numeric_readout("CN1CCN(Cc2ccc(NC(=O)c3cncc(C#Cc4cnc(N)c5cccnc45)c3)cc2C(F)(F)F)CC1")
-0.449
>>> numeric_readout("COc1cc(-c2nc3ccccc3s2)ccc1NC(=O)COc1ccc(Cl)cc1")
29.1
>>> numeric_readout("CN1CCCCC1CCN1c2ccccc2Sc2ccc(Br)cc21 (stereo not drawn)")
85.7
>>> numeric_readout("O=C(O)c1c([N+](=O)[O-])cnc2ccccc12")
90.6
>>> numeric_readout("COc1cc(OC)c(/C=C/c2cc[n+](C)c3ccccc23)c(OC)c1")
17.1
>>> numeric_readout("Cn1c2c(Cl)c(Cl)ccc2c2ccn3c(=O)c4ccccc4nc3c21")
68
>>> numeric_readout("Nc1cc2ccncc2c2ccccc12")
79.6
>>> numeric_readout("COc1cc(/C=C2\\CN(C(=O)CCN3CCC(=NO)CC3)C/C(=C\\c3cc(OC)c(OC)c(OC)c3)C2=O)cc(OC)c1OC")
-47.2
>>> numeric_readout("CC[C@H](CO)Nc1nc(NCc2ccccc2)n2ncc(C(C)C)c2n1")
3.3
>>> numeric_readout("CCOC(=O)C(C#N)C1CCCCC1 (stereo not drawn)")
90.4
>>> numeric_readout("CS(=O)(CCCCN=C=S)=NC(=O)c1c(F)c(F)c(F)c(F)c1F (stereo not drawn)")
111
>>> numeric_readout("O=C(Cn1cc(CN2C(=O)c3ccccc3S2(=O)=O)nn1)Nc1ccc([N+](=O)[O-])cc1Cl")
101
>>> numeric_readout("CC(=O)C1=C(O)C=C2Oc3c(C(=O)/C=C/c4c(Cl)cccc4Cl)c(O)c(C)c(O)c3[C@]2(C)C1=O")
-48.6
>>> numeric_readout("COc1ccc(C(=O)c2sc3nc4c(c(C(F)(F)F)c3c2N)CN(C(C)=O)CC4)cc1OC")
87

====

system: HT29 colon; experiment: NCI-60 one-dose screen, 48 h (100 = growth as untreated, 0 = no growth, -100 = all killed); conditions: 10 µM unless noted
Compounds without any hit were thinned out: in the full panel of roughly 83,000, 20% have a hit.
RECORDED_METRIC: growth (%)

>>> numeric_readout("Cc1ccc(N)cc1F")
110
>>> numeric_readout("CC1=C(NCCN2CCCC2)C(=O)c2c(OCc3cccc(Cl)c3)cccc2C1=O")
26.1
>>> numeric_readout("O=C(O)C(O)C(O)C(=O)O.[NH-]C1CCCCC1[NH-].[Pt+2] (centres undefined)")
111
>>> numeric_readout("CCN(CC)CCCC(C)N/C(=C1\\C(=O)NC(=O)\\C1=C(/NC(C)CCCN(CC)CC)c1cccc(OC)c1)c1cccc(OC)c1 (centres undefined)")
-54.8
>>> numeric_readout("C=C1CCC2C3(C)COC(c4ccccc4Br)OC3CCC2(C)C1C/C=C1/C(=O)OCC1OC(C)=O (centres undefined)")
-46.2
>>> numeric_readout("C/C(Cc1ccc(Cl)cc1)=C(\\c1ccc(OCCN2CCCCCC2)cc1)c1ccc(OC(=O)Cc2ccccc2)cc1")
9.8
>>> numeric_readout("CN(C)c1ccc(/C=C\\C2=[N+](C)c3ccccc3C2(C)C)cc1")
10.5
>>> numeric_readout("CCCCCCCCCCNC(=O)CCl")
84.2
>>> numeric_readout("COc1ccc2[nH]c(=O)c(/C=C/C(=O)c3ccc(Nc4nccc(-c5ccc6ccccc6c5)n4)cc3)cc2c1")
102
